System: CCRF-CEM
Experiment: Cytotoxicity against human CCRF-CEM cells assessed as reduction in cell viability incubated for 72 hrs
Type: functional, cell-based
pIC50: −log10 of the molar value.
Criterion: pIC50 meeting or surpassing 6. Met: 1 (yes). Not met: 0 (no).

[
  {
    "molecule": "O=C(/C=C/C=C/C=C/C=C/c1ccc[nH]1)OCc1ccccc1",
    "system_name": "CCRF-CEM",
    "label": "1 (yes)"
  }
]

Item `CCOC(=O)/C=C/C=C/C=C/C=C/c1[nH]ccc1Cl` with pIC50 of 6 or above?
1 (yes)

Item `CCOC(=O)/C=C/C=C/C=C/C=C/c1cccn1C` with pIC50 of 6 or above?
0 (no)

* * *

Reported values of IC50 for individual entries
System: CCRF-CEM
Assay: Cytotoxicity against human CCRF-CEM cells assessed as reduction in cell viability incubated for 72 hrs
Assay type: functional, cell-based
Report the figure in µM without appending any unit label.

[
  {
    "compound_structure": "COc1cc(\\C(C)=C/C=C/C=C/C=C/c2[nH]ccc2Cl)oc(=O)c1C",
    "system_name": "CCRF-CEM",
    "IC50 / µM": 1.76
  },
  {
    "compound_structure": "CCOC(=O)/C=C/C=C/C=C/c1[nH]ccc1Cl",
    "system_name": "CCRF-CEM",
    "IC50 / µM": 2.42
  },
  {
    "compound_structure": "O=C(/C=C/C=C/C=C/c1ccc[nH]1)OCc1ccccc1",
    "system_name": "CCRF-CEM",
    "IC50 / µM": 0.83
  }
]

Proceed to the following item.
Look up IC50 for this compound: `CCOC(=O)/C=C/C=C/C=C/c1ccc[nH]1`
3.67

* * *

Test system: CCRF-CEM
Test: Cytotoxicity against human CCRF-CEM cells assessed as reduction in cell viability incubated for 72 hrs
Format: functional, cell-based
Reported values of log10 of IC50 for individual entries
Use the decimal logarithm of IC50 (nM).

Here are 6 compounds together with their reported answers.
[
  {
    "compound": "CCOC(=O)/C=C/C=C/C=C/C=C/c1ccc[nH]1",
    "system_name": "CCRF-CEM",
    "recorded_value": 3.13
  },
  {
    "compound": "O=C(/C=C/C=C/C=C/C=C/c1ccc[nH]1)c1ccccc1",
    "system_name": "CCRF-CEM",
    "recorded_value": 2.86
  },
  {
    "compound": "CCOC(=O)/C=C/C=C/C=C/c1nccs1",
    "system_name": "CCRF-CEM",
    "recorded_value": 3.65
  },
  {
    "compound": "CCOC(=O)/C=C/C=C/C=C/C=C/C=C/c1ccc[nH]1",
    "system_name": "CCRF-CEM",
    "recorded_value": 2.65
  },
  {
    "compound": "O=C(/C=C/C=C/C=C/C=C/c1[nH]ccc1Cl)OCc1ccccc1",
    "system_name": "CCRF-CEM",
    "recorded_value": 2.45
  },
  {
    "compound": "O=C(/C=C/C=C/C=C/c1ccc[nH]1)c1ccccc1",
    "system_name": "CCRF-CEM",
    "recorded_value": 3.49
  }
]

Look up log10 of IC50 for this compound: COc1cc(/C=C/C=C/C=C/C=C/c2[nH]ccc2Cl)oc(=O)c1 [AUXARCONJUGATIN B]
2.71
